Where do the numbers come from? From the Human Domainome abundance scans (Beltran et al. 2025).

B1: Pituitary-specific positive transcription factor 1, residues 130 to 198; numbered along this chain, P28069 (parent)
chain: RELEKFANEFKVRRIKLGYTQTNVGEALAAVHGSEFSQTTICRFENLQLSFKNACKLKAILSKWLEEAE

Variants of: B1
Assay: abundance fitness (aPCA) (normalised: wild type 0, dead -1); higher = more abundant; growth selection in yeast, the domain comes from the species named
Conditions: Homo sapiens
Listing of recorded abundance fitness by entry.
Give the value as a plain number.

Before answering, review these 10 worked examples.
INSERT INTO results (variant_notation, parameter, readout_value) VALUES
  ('L57A', 'abundance fitness', -0.449),
  ('L57W', 'abundance fitness', -0.642),
  ('L17W', 'abundance fitness', -0.638),
  ('G18H', 'abundance fitness', -0.742),
  ('L61M', 'abundance fitness', -0.491),
  ('K5W', 'abundance fitness', -0.596),
  ('L17N', 'abundance fitness', -0.729),
  ('A59K', 'abundance fitness', 0.025),
  ('K16G', 'abundance fitness', -0.559),
  ('I60L', 'abundance fitness', -0.135);

Would you mind telling me what abundance fitness value was observed for "E9S" ?
-0.213
